Tested on: foxtail, giant (Setaria faberii)
assay-summary: Test A postemergence, giant foxtail
Format: in vivo
measurement-parameters: Setaria faberi, post-emergence, 240 h, 125 g ai/ha, 0 to 100 scale, 0 no effect, 100 complete control, read-out: Plant response rating, Foxtail, Giant
Measured pest or weed control at 125 g/ha by item
observable: pest or weed control at 125 g/ha

C[C@@H](Nc1ncc(C(F)(F)F)c(N)n1)c1cc2c(F)cccc2s1 = 90%
C[C@@H](Nc1ncc(C(F)(F)F)c(N)n1)c1cc2cccc(F)c2o1 = 60%
C[C@@H](Nc1ncc(C(F)(F)F)c(N)n1)c1cc2cccc(F)c2s1 = 60%
C[C@@H](Nc1ncc(C(F)(F)F)c(N)n1)c1cc2c(F)cccc2o1 = 70%
C[C@@H](Nc1ncc(C(F)(F)F)c(N)n1)c1coc2ccccc12 = 40%
